- targetDesc: Delta-type opioid receptor (Rattus norvegicus, UniProt P33533)
- Sequence (P33533 whole entry): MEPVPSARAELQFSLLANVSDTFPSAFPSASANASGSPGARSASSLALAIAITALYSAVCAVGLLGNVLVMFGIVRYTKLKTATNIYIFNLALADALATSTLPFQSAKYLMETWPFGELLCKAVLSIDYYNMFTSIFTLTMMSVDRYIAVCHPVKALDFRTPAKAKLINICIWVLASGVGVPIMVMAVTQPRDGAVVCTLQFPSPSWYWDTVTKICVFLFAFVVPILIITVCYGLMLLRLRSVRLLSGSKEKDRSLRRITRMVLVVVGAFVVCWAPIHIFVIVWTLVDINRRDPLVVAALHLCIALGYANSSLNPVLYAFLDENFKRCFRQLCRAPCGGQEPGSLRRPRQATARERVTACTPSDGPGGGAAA
- assayName: Binding affinity of compound evaluated for Opioid receptor delta 1 isolated from rat brain
pKi: −log10 of the molar value.
Could you label it YES if measured pKi is 9 or higher, and NO otherwise?

Here are 3 compounds together with their reported answers.
- compound: "C=CCN1C[C@H](C)N([C@@H](c2cccc(O)c2)c2cccc(C(=O)N(C)c3cccc(F)c3)c2)C[C@H]1C (stereo in doubt; 24)"
  assignedCategory: "YES"
- compound: "C=CCN1C[C@H](C)N([C@@H](c2cccc(O)c2)c2cccc(C(=O)N(CCC)c3ccc(F)cc3)c2)C[C@H]1C"
  assignedCategory: "NO"
- compound: "C=CCN1C[C@H](C)N([C@@H](c2cccc(O)c2)c2cccc(C(=O)N(c3ccccc3)C3CC3)c2)C[C@H]1C"
  assignedCategory: "NO"

Shift focus to the following entry.
Kindly determine if pKi recorded for C=CCN1C[C@H](C)N([C@H](c2cccc(O)c2)c2cccc(C(=O)N(CC)CC)c2)C[C@H]1C is above or exactly 9.
NO
